# CONDITION: plasma; 4 sprays; mixed model; significant when ratio >=2.0 plus 90% CI outside 0.5-2.0
Quick list: AUClast, Geometric LS Mean Ratio (Severe RI/Normal), Estimate per entry.
// response body must contain only the number

See these solved cases before continuing.
Query :: Supply measured AUClast, Geometric LS Mean Ratio (Severe RI/Normal), Estimate of C=C(C)[C@@H]1CCC(C)=C[C@H]1c1c(O)cc(CCCCC)cc1O [CBD, Cannabidiol, reference compound] in your reply.
Result :: 1.95

Query :: Supply measured AUClast, Geometric LS Mean Ratio (Severe RI/Normal), Estimate of CCCCCc1cc(O)c2c(c1)OC(C)(C)[C@@H]1CCC(C)=C[C@@H]21 [THC, Δ-9-tetrahydrocannabinol, reference compound] in your reply.
Result :: 1.34

Query :: Supply measured AUClast, Geometric LS Mean Ratio (Severe RI/Normal), Estimate of CCCCCc1cc(O)c2c(c1)OC(C)(C)[C@@H]1CCC(C(=O)O)=C[C@@H]21 in your reply.
Result :: 1.26

Query :: Supply measured AUClast, Geometric LS Mean Ratio (Severe RI/Normal), Estimate of C=C(C)[C@@H]1CCC(C(=O)O)=C[C@H]1c1c(O)cc(CCCCC)cc1O in your reply.
Result :: 1.92

Query :: Supply measured AUClast, Geometric LS Mean Ratio (Severe RI/Normal), Estimate of C=C(C)[C@@H]1CCC(CO)=C[C@H]1c1c(O)cc(CCCCC)cc1O in your reply.
Result :: 4.59

Next:
Query :: Supply measured AUClast, Geometric LS Mean Ratio (Severe RI/Normal), Estimate of CCCCCc1cc(O)c2c(c1)OC(C)(C)[C@@H]1CCC(CO)=C[C@@H]21 in your reply.
Result :: 3.18

###

# CONDITION: renally impaired vs normal; after oromucosal spray
RECORDED METRIC: elimination in patients with renal impairment

Query :: Supply measured elimination in patients with renal impairment of CCCCCc1cc(O)c2c(c1)OC(C)(C)[C@@H]1CCC(C)=C[C@@H]21 [THC, Δ-9-tetrahydrocannabinol, reference compound] in your reply.
Result :: relatively unchanged

Query :: Supply measured elimination in patients with renal impairment of C=C(C)[C@@H]1CCC(C)=C[C@H]1c1c(O)cc(CCCCC)cc1O [CBD, Cannabidiol, reference compound] in your reply.
Result :: relatively unchanged

Query :: Supply measured elimination in patients with renal impairment of CCCCCc1cc(O)c2c(c1)OC(C)(C)[C@@H]1CCC(C(=O)O)=C[C@@H]21 [11-COOH-THC] in your reply.
Result :: relatively unchanged

Query :: Supply measured elimination in patients with renal impairment of C=C(C)[C@@H]1CCC(C(=O)O)=C[C@H]1c1c(O)cc(CCCCC)cc1O [7-COOH-CBD] in your reply.
Result :: relatively unchanged

###

Quick list: AUC0-tlast Fold Change from Normal per entry.
# CONDITION: severe renal impairment; 4 sprays
The answer is to be given in fold; state only the numeric part.

Query :: Supply measured AUC0-tlast Fold Change from Normal of CCCCCc1cc(O)c2c(c1)OC(C)(C)[C@@H]1CCC(C(=O)O)=C[C@@H]21 in your reply.
Result :: 1.26

Query :: Supply measured AUC0-tlast Fold Change from Normal of C=C(C)[C@@H]1CCC(C)=C[C@H]1c1c(O)cc(CCCCC)cc1O [CBD, Cannabidiol, reference compound] in your reply.
Result :: 1.95

Query :: Supply measured AUC0-tlast Fold Change from Normal of C=C(C)[C@@H]1CCC(CO)=C[C@H]1c1c(O)cc(CCCCC)cc1O in your reply.
Result :: 4.59

Query :: Supply measured AUC0-tlast Fold Change from Normal of CCCCCc1cc(O)c2c(c1)OC(C)(C)[C@@H]1CCC(CO)=C[C@@H]21 in your reply.
Result :: 3.18

Query :: Supply measured AUC0-tlast Fold Change from Normal of CCCCCc1cc(O)c2c(c1)OC(C)(C)[C@@H]1CCC(C)=C[C@@H]21 [THC, Δ-9-tetrahydrocannabinol, reference compound] in your reply.
Result :: 1.34

Query :: Supply measured AUC0-tlast Fold Change from Normal of C=C(C)[C@@H]1CCC(C(=O)O)=C[C@H]1c1c(O)cc(CCCCC)cc1O in your reply.
Result :: 1.92
